Sourced from PubChem BioAssay (NCI)

System: KM12 colon
Test: NCI tumour cell line growth inhibition, 48 h
Metric Name: TGI (µM)
Respond numerically; units are µM and should not be typed.

Examples from the recorded data:
compound=COC(=O)CN1c2nc(C#N)c(C#N)nc2N(CC(=O)OC)c2nc(C#N)c(C#N)nc21 target_or_system="KM12 colon" metric_name=TGI observed=27.8
compound="CC1CN=C(N(C(=O)Nc2ccc(F)c(Cl)c2)c2ccccc2)S1 (stereo not drawn)" target_or_system="KM12 colon" metric_name=TGI observed=78.3

Query :: Look up and report measured TGI for this entry: CO[C@H]1Nc2c(ccc(C)c2O)C(=O)N2C=C(/C=C/C(N)=O)C[C@@H]12
Result :: 7.2
